B1: Azoarcus group I ribozyme (parent)
chain: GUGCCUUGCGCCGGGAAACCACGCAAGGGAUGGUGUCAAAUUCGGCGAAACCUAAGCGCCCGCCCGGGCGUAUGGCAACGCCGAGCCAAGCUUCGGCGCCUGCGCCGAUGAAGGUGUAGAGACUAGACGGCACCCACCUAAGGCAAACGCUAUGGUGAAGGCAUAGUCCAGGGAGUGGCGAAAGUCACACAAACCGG

- Variants of: B1
- PROTOCOL: reverse-splicing fitness (ratio to wild type); higher = more active; in vitro selection; Mg2+ level not given
Answer 0 if reverse-splicing fitness is under 0.005, and 1 if it is 0.005 or more.

# bool: reverse-splicing fitness of C82U A111U A120G A145U C150G C169U U176A >= 0.005
1

# iterate: C82U A120U A145C C169G U176C
0

# iterate: C82U A111U A120C C150A U176C
1

# iterate: A120U A145G C169U U176A
1

# iterate: C82G A111G A120U A145U C150G C169U U176G
0

# iterate: C82U A111G A120U A145C C150U C169G
0

# iterate: C82A C150A C169U U176C
1

# iterate: C82G A111G A145G C150A C169G U176A
1

# iterate: C82U A111G A120U A145G C150A C169U
0

# iterate: C82G A111U A120G A145C C150A C169G U176C
1

# iterate: C82G A120C A145C C150A C169A
1

# iterate: C82U A111C A145C C150G C169G
1

# iterate: C82U A120C A145U C169U U176G
0

# iterate: C82G A120U A145U C150G C169U U176A
0

# iterate: A111G A120U C169G
1

# iterate: C82A A111C A120C C150G
1

# iterate: C82U A111G A120U C150A U176G
0

# iterate: C82G A120C C169A U176A
1

# iterate: A111G C150G C169A U176A
1

# iterate: C82U A111G A120U A145G C150A C169G U176G
0

# iterate: A111U A120U A145C
1

# iterate: C82A A120U A145C C150U C169U U176G
0

# iterate: C82U A111C A120G A145C C150A C169A U176C
1

# iterate: C82U A120U C169A U176A
0

# iterate: C82U A111C A120U A145C C150U C169U U176A
0

# iterate: C82G A111C C150U C169U U176G
1

# iterate: C82G A111U A120G C150A C169A U176G
1

# iterate: C82U A111C A120U C169U
1

# iterate: A120G A145C C150U C169A
1

# iterate: C82U A111C A120C C150U C169A U176G
1

# iterate: C82U A111U A120U C150A C169U
0

# iterate: C82U A120G A145U C150U C169A U176G
0

# iterate: C82U A111C A120G A145C C150A U176A
1

# iterate: C82A A111C A145G C150U C169G U176C
1

# iterate: C82A A120C A145G C169G
1
